SYSTEM UNDER TEST: 5-HT7 receptor (Homo sapiens)
Sequence (P34969 1-432 limits assumed): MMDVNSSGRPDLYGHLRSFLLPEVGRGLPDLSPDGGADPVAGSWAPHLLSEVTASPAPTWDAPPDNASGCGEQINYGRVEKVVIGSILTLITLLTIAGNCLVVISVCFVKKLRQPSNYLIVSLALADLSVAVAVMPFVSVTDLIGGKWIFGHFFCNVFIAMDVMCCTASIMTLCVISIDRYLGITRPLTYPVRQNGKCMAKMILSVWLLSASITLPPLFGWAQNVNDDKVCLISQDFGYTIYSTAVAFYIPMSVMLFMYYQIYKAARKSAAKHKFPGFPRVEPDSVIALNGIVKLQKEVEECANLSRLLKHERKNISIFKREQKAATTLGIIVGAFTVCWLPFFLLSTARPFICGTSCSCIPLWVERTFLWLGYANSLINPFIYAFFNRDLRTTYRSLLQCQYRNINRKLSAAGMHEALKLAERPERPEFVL
ASSAY REMARKS: Radioligand binding, 5-HT7 ([3H]-5-CT displacement)
Could you please report measured pKi for the items listed next?
Give bare numbers, as −log10 of the molar value.

Before answering, review these 5 worked examples.
{"MOLECULE": "O=S(=O)(c1ccccc1)n1ccc2c(N3CCN(Cc4ccccc4)CC3)nc3ccccc3c21", "MEASURE NAME": "pKi", "EXPERIMENTAL RESULT": 5.63}
{"MOLECULE": "O=S(=O)(c1cccc(Cl)c1)n1ccc2c(NC3CCNC3)nc3ccccc3c21 (centres unmarked)", "MEASURE NAME": "pKi", "EXPERIMENTAL RESULT": 5.67}
{"MOLECULE": "COc1cccc(S(=O)(=O)n2ccc3c(NC4CCNC4)nc4ccccc4c32)c1 (centres unmarked)", "MEASURE NAME": "pKi", "EXPERIMENTAL RESULT": 5.31}
{"MOLECULE": "O=S(=O)(c1cccc(F)c1)n1ccc2c(NC3CCNC3)nc3ccccc3c21 (centres unmarked)", "MEASURE NAME": "pKi", "EXPERIMENTAL RESULT": 5.02}
{"MOLECULE": "O=S(=O)(c1cccc2ccccc12)n1ccc2c(NC3CCNC3)nc3ccccc3c21 (centres unmarked)", "MEASURE NAME": "pKi", "EXPERIMENTAL RESULT": 5.85}

List the reported pKi of each molecule below.
1. Clc1cccc(Cn2ccc3c(N4CCNCC4)nc4ccccc4c32)c1
2. O=S(=O)(c1cccc2cccnc12)n1ccc2c(N3CCNCC3)nc3ccccc3c21
3. O=S(=O)(c1ccc(F)c(F)c1)n1ccc2c(N3CCNCC3)nc3ccccc3c21

1: 5.49; 2: 5.11; 3: 5.30

* * *

SYSTEM UNDER TEST: 5-HT1A receptor (Homo sapiens)
Sequence (P08908 1-422): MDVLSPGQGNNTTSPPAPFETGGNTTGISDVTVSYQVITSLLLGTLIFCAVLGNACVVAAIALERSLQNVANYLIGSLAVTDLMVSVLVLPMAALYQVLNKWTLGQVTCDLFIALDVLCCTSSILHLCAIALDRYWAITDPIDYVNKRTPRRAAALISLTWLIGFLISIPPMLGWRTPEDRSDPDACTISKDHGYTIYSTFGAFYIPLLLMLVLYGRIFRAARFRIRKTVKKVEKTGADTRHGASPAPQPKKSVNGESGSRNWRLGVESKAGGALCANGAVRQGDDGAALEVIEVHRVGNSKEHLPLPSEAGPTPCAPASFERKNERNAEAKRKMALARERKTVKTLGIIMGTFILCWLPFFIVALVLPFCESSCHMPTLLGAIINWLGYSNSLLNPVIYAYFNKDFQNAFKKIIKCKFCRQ
ASSAY REMARKS: Radioligand binding, 5-HT1A ([3H]-8-OH-DPAT displacement)
MEASURE NAME: Ki (nM)
One number for each entry, in nM.

Before answering, review these 2 worked examples.
{"MOLECULE": "O=S(=O)(c1ccc(Cl)s1)n1ccc2c(N3CCNCC3)nc3ccccc3c21", "SYSTEM UNDER TEST": "5-HT1A receptor (Homo sapiens)", "Ki, nM": 590}
{"MOLECULE": "CN1CCN(c2nc3ccccc3c3c2ccn3S(=O)(=O)c2cccc(Cl)c2)CC1", "SYSTEM UNDER TEST": "5-HT1A receptor (Homo sapiens)", "Ki, nM": 519}

--- query ---
For reference, reported Ki for O=S(=O)(c1ccccc1)n1ccc2c(NC3CCNC3)nc3ccccc3c21 (stereo not drawn) stands at 9150
